target: Vitamin D3 receptor (Homo sapiens) (UniProt P11473); assay: qHTS assay to identify small molecule agonists of the vitamin D receptor (VDR) signaling pathway (AID 743222); conditions: HEK293T VDR-UAS-bla, beta-lactamase FRET ratio, 16 h; series mostly up to 63.5 µM
Sequence (P11473 whole entry, looked up): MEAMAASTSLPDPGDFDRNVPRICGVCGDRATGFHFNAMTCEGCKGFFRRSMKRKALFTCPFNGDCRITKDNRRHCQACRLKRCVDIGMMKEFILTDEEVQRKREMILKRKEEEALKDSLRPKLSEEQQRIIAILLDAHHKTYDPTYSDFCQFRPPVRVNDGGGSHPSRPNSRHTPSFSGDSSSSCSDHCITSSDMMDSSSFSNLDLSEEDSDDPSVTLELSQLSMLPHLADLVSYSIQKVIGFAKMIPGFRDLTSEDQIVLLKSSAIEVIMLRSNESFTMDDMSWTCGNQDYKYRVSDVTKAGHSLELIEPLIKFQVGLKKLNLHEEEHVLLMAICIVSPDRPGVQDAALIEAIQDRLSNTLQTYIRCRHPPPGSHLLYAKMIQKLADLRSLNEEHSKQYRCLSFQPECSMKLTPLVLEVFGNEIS
Records with an inconclusive call do not appear. Active and inactive are the calls of the source. Calls follow the shape of the full dose curve.

[
  {
    "COMPOUND": "O=C1Nc2ccc(Cl)cc2[C@@](C#CC2CC2)(C(F)(F)F)O1",
    "outcome": "inactive"
  },
  {
    "COMPOUND": "CN(C)c1ccc(N=Nc2ccccc2C(=O)O)cc1",
    "outcome": "inactive"
  },
  {
    "COMPOUND": "ClC/C=C\\CCl",
    "outcome": "inactive"
  },
  {
    "COMPOUND": "C=CC(=C)CCC=C(C)C",
    "outcome": "inactive"
  },
  {
    "COMPOUND": "CCOC(=O)[C@@](C)(N)Cc1ccc(O)c(O)c1",
    "outcome": "inactive"
  },
  {
    "COMPOUND": "COc1cccc(CCc2ccccc2OCC(CN(C)C)OC(=O)CCC(=O)O)c1 (configuration not stated)",
    "outcome": "inactive"
  },
  {
    "COMPOUND": "CCCCC(CC)COC(=O)c1ccc(O)cc1 (configuration not stated)",
    "outcome": "inactive"
  }
]
